system: GT1b wild-type replicon; assay: microbe, parasite or virus in culture; type: cell-based, HCV; conditions: Hepatitis C virus, 72 h, 3 days
Measured EC50 values are reported for all entries that follow.
Express your answer in nM, writing the number without its unit.

Example cases with answers are listed next.
compound	test target	property measured	observed measurement
NC(=O)c1ncn([C@@H]2O[C@H](CO)[C@@H](O)[C@H]2O)n1 [Ribavirin, reference compound]	GT1b wild-type replicon	EC50	6.6
CC(C)OC(=O)[C@H](C)N[P@](=O)(OC[C@H]1O[C@@H](n2ccc(=O)[nH]c2=O)[C@](C)(F)[C@@H]1O)Oc1ccccc1 [Compound 10]	GT1b wild-type replicon	EC50	21.5

# ---- query compound ----
Requested field: EC50. Item: COC(=O)N[C@H](C(=O)N1CC2(CC2)C[C@H]1c1ncc(-c2ccc3c(c2)C(F)(F)c2cc(-c4ccc5nc([C@@H]6[C@H]7CC[C@H](C7)N6C(=O)[C@@H](NC(=O)OC)C(C)C)[nH]c5c4)ccc2-3)[nH]1)C(C)C [Compound 6] 0.5
